src = ChEMBL document CHEMBL1201862

Overview of recorded GI50 for various compounds
Tested on: SK-MEL-28
assaySummary: NCI tumour cell line growth inhibition, 48 h
The source made the active and inactive calls. Rule as the data show it: active = GI50 up to about 1.1 µM and inactive = higher.

Consider the following illustrative entries.
{"compound": "C=C1C(=O)C=C2C=C3C(=O)C(C)(C)C[C@]3(O)C12C (stereo partly specified)", "GI50": "2.52 µM (inactive)"}
{"compound": "Oc1nc(S)nc2nc3c4cccnc4c4ccccc4c3nc12", "GI50": "77.1 µM (inactive)"}
{"compound": "CC(=O)Nc1ccc(S(=O)(=O)Nc2cnc3ccccc3n2)cc1", "GI50": "> 100 µM (inactive)"}
{"compound": "COC(=O)CCC(=O)NC1=C(Nc2ccccc2)C(=O)c2ccccc2C1=O", "GI50": "8.51 µM (inactive)"}
{"compound": "O=C(CC1(O)C(=O)Nc2c(Cl)ccc(Cl)c21)c1ccc(Cl)cc1Cl (stereo unspecified)", "GI50": "21.7 µM (inactive)"}

Here is another compound to look at.
Given the compound O=c1cc2n(c(=O)[nH]1)C1OC(C(O)C1O)[C@H]2CCO (stereo partly specified) , write its reported GI50.
> 100 µM (inactive)

---

Tested on: NCI-H23
assaySummary: NCI tumour cell line growth inhibition, 48 h
Calls of active or inactive are those of the source. Rule as the data show it: active = GI50 up to about 1.1 µM and inactive = higher.
Assign a class; possible classes are active, inactive

Example results:
{"molecule": "C=C1C(=O)C=C2C=C3C(=O)C(C)(C)C[C@]3(O)C12C (stereo partly drawn)", "targetUnderTest": "NCI-H23", "label": "inactive"}
{"molecule": "CC(=O)/N=C1\\NC(=O)/C(=C/c2ccccc2Cl)N1C", "targetUnderTest": "NCI-H23", "label": "inactive"}
{"molecule": "O=S1(=O)N=C(NCc2c[nH]c3ccccc23)N(c2ccccc2)c2ccncc21", "targetUnderTest": "NCI-H23", "label": "inactive"}
{"molecule": "O=C1N=C(Nc2ccccc2Cl)SC1C(=O)Nc1ccc([N+](=O)[O-])cc1[N+](=O)[O-] (stereo not drawn)", "targetUnderTest": "NCI-H23", "label": "inactive"}
{"molecule": "CCc1cccc(C)c1NC(=O)CCc1nnc(SC)o1", "targetUnderTest": "NCI-H23", "label": "inactive"}

Hi, do you know how `COc1ccc(/N=N/c2c(N)nn(C)c2N)cc1` came out in this test?
inactive

Hi, do you know how `O=C(C#Cc1cnc(O)nc1O)c1ccccc1` came out in this test?
inactive

Hi, do you know how `SC1=Nc2ccccc2-c2nc(-c3cccc(Cl)c3)cc(-c3ccccc3)c2C1` came out in this test?
inactive

Hi, do you know how `COC(=O)CCC(=O)NC1=C(Nc2ccccc2)C(=O)c2ccccc2C1=O` came out in this test?
inactive

---

System: DU-145
assaySummary: NCI tumour cell line growth inhibition, 48 h
The source made the active and inactive calls. Rule as the data show it: active = GI50 up to about 1.1 µM and inactive = higher.
Overview of recorded GI50 for various molecules

{"molecule": "CC(=O)OC[C@@H](OC(C)=O)[C@H](OC(C)=O)[C@@H]1OC(C)(C)O[C@@H]1C1SCCCS1", "targetUnderTest": "DU-145", "GI50": "> 100 µM (inactive)"}
{"molecule": "O=C(/C=C/c1ccsc1)c1ccc(Cl)cc1", "targetUnderTest": "DU-145", "GI50": "> 100 µM (inactive)"}
{"molecule": "CC1(C)CC2=C(SC3C=CC=CC3N2)C(=O)C1C(=O)C(N)=O (stereo unspecified)", "targetUnderTest": "DU-145", "GI50": "> 100 µM (inactive)"}
{"molecule": "O=C(O)c1nn[nH]c1S", "targetUnderTest": "DU-145", "GI50": "> 100 µM (inactive)"}
{"molecule": "NCCCN(CCCCN(CCCN)CCCc1ccccc1)CCCc1ccccc1", "targetUnderTest": "DU-145", "GI50": "8.11 µM (inactive)"}

Given the molecule `O=c1oc(-c2ccccc2)c(-c2ccccc2)n1-c1ccc(Br)cc1` , write its reported GI50.
21 µM (inactive)
